Experiment: soluble on expression in E. coli; label from the status in PepcDB or PDB records
property.label: soluble on expression in E. coli

>>> test_result("MDLQTSSKFLQNQLAHLFQCERDSADVENSEGCFSTGNDPAFKDERLRFEFHTEPFNRRYLLRVVKVPP")
"not soluble"
>>> test_result("MPKSLSLQDVQLRFSSKFPDKTVLKFTKNYEPVTIQCPLHGSVVYGNLQAAMKSSTGCPECTRNPEKPSPNAVAIRLEDTETGEIYEFASTLAASKFIGCSNSTLAVRLSGRTPFDRLIRYRYRLVK")
"not soluble"

----------
Experiment: soluble on expression in E. coli; label from the status in PepcDB or PDB records
property.label: soluble on expression in E. coli

>>> test_result("MSLATIYDVAKAAGVSPKTVSRVLNDDAPVNESTRQAVNEAIAALDYLPSQAARMMRSSRSRLIGLITGAISQEIGPAVQSGLPEMNIVQAIQREMSAQGKILMISDTGGRADAAPVLARTFAQHRVEGLIYVADHHREIEMDLTSGNCPVVLVNCYDAAATPCVLPDDEAGEAALVARLIEAGHRRIGFLPPDRTQPAARLRLDGYRTALAAAGLAYDPDLVAHVHDPDADRARALLTEALDALLSLDAPPSVICCTNDEMAMRLYGLLRSRGLRVPDDISVAGYDDHKTISEMLYPQLTTVVLPYSEMGRQAARLMLELIEGKPLASPGPTLVDGPVVWRSSVTEGHHHHHH")
"soluble"
>>> test_result("MSHLVYVSRVVAAPIERVWPHLRDFNGLSAWHPGVADSRLEEGGRDDAPGTVRFLSLNPSGYVRERLLMLDDAGRSLRYAIIETDLPMRDYVAGVDLCPVTEGGGTFAQWWADFDVVAGANRDEVARLVGEGVFAAGLQALDQYLRGRQALEHHHHHH")
"not soluble"
>>> test_result("MSLSQLEPRQQAFRNAMAHLSAAVNVITSNGPAGRCGITATAVCSVTDSPPTLMLCINRNSEMNTVFKANGRLCVNVLSGEHEEVARHFAGMTEVPMERRFALHDWREGLAGLPVLHGALANLQGRIAEVQEIGTHSVLLLELEDIQVLEQGDGLVYFSRSFHRLQCPEGGSHHHHHH")
"soluble"
>>> test_result("MGSDKIHHHHHHMAVQDLLSQDEIDALLHGVDDGMVQTDIASEPGSVKSYDLTSQDRIVRGRMPTLEMINERFARYTRISMFNLLRRSADVAVGGVQVMKFGEYVHSLYVPTSLNLAKIKPLRGTALFILDAKLVFKLVDNFFGGDGRHAKIEGREFTPTELRVVRMVLDQAFIDLKEAWQAIMEVNFEYINSEVNPAMANIVGPSEAVVISTFHIELDGGGGDLHVTMPYSMIEPIREMLDAGFQSDLDDQDERWVNALKEDVLDVNVPLTTTIAQRQLPLRDILHMRPGDVIPVELSDTLVLRANGVPSFKVKLGSHKGKMALQVIEPIARR")
"not soluble"
>>> test_result("MLALMDADGNIAWSGEYDEWGNQLNEENPHHLHQPYRLPGQQYDKESGLYYNRNRYYDPLQGRYITQDPIGLEGGWSLYAYPLNPVNGIDPLGLSPADVALIRRKDQLNHQRAWDILSDTYEDMKRLNLGGTDQFFHCMAFCRVSKLNDAGVSRSAKGLGYEKEIRDYGLNLFGMYGRKVKLSHSEMIEDNKKDLAVNDHGLTCPSTTDCSDRCSDYINPEHKKTIKALQDAGYLKLEHHHHHH")
"not soluble"
>>> test_result("GMAEDQTVLAIDIGGSHVKIGLSTDGEERKVESGKTMTGPEMVAAVTAMAKDMTYDVIAMGYPGPVVHNKPLREPVNLGEGWVGYDYEGAFGRPVRIVNDALMQAIGSYNGGRMLFLGLGTGLGAAMIVENVAQPMEIAHLPYRKGKTYEHYVSEAYREKKGNAKWQKRVQDVVERLSAALEPDEVVIGGGNVERLENLPPKCRRGDNAMAFEGGFRLWKNADLIV")
"soluble"
>>> test_result("MKKPTSAPRSKAFGKQRRKTREELNQEARDRKRLKKHRGHAPGSRAAGGNSASGGGNQNQQKDPRIGSKTPVPLGVTEKVTQQHKPKSEKPMLSPQAELDLLETDERLDALLERLEAGETLSAEDQAWVDAKLDRIDELMQKLGLSYDDDEEDDEEDEKQEDMMRLLRGGN")
"not soluble"
>>> test_result("MKKQKLSGAEGFESYYLSIFGERWQSLKAALLEERKPEAYSENLIQNYYLDYASIQAARAMPVLEEGSCLDMCAAPGGKTLVLLSRIKENAEIQANELSADRRNRLIRVLDEHLSEETRKRIRVSSYDASRMPRYGQELYDRILLDAPCSSERHVLQNEKYLKQWTEARIKNLSQRQWALLSAAFLLLKPKGFLVYSTCALADEENDFLIEKLIKKYKEKVRLEEKLDGLGPISPEKTRYGFRFLPDKAEGAGPIYFSLIQKN")
"not soluble"
>>> test_result("MAHHHHHHMIKLGNFAWQLLTRADGSNLGGVLRGSRKVCSLSVARLSKHPYKPKTKEVIHPHVTPPEFLSPSDCFEAKTDELQQYLPSNYYRTKWVESLRAGEHLGSDYPWNLLPHWKFWKKRKYNVVYGEVPWFVSKVKGVSYYQRLNVWMVQWVEEGVHRIRRFRCAFGVLQAKLAAEQFRRNLEESGRVDNRKSERQLRMDYIQKRDERLLRKKRYSKVSKGQF")
"not soluble"
>>> test_result("MGSDKIHHHHHHMIVEKRRFPSPSQHVRLYTICYLSNGLRVKGLLAEPAEPGQYDGFLYLRGGIKSVGMVRPGRIIQFASQGFVVFAPFYRGNQGGEGNEDFAGEDREDAFSAFRLLQQHPNVKKDRIHIFGFSRGGIMGMLTAIEMGGQAASFVSWGGVSDMILTYEERQDLRRMMKRVIGGTPKKVPEEYQWRTPFDQVNKIQAPVLLIHGEKDQNVSIQHSYLLEEKLKQLHKPVETWYYSTFTHYFPPKENRRIVRQLTQWMKNR")
"not soluble"
>>> test_result("MGSDKIHHHHHHMADRPHAEEGQTAGPAGQPGVAAWLDNQPPKWRPVASAIGSLELMTFFQFVLAAVLMSALPAHGADRIIYLTFDDGPLNGTSNILDVLEAEQVPATLFMVGMHAEAGASNKALVRRAKAMPLVTIGNHSYTHAYNHYRHFYGDTEGVVADMLMANVVLGLKPAVHARLPGRDVFRLPSMSKDDNSLGPAQAGREDPDYEFVAASGFYLYGWDHEWVHKDSGEPVQSVDHLVSEIDHLFGYGHFAKPGKLILLMHDEMFQDGFDGKTKLTDLITALKLRHYAFGTIPNYDH")
"not soluble"
>>> test_result("PQMKTLETRSCILRPASLDDVEDFFDCYKNKIVVKHLPFSEHKSLEDTRKFIKSFFLNPYKKGKIGHFAIVYKRDNKVIGNMGFNNINPKALEAEIGICINPSYWGHDFATEITKRVIQYGFRELNLNKIIAITYEENQNSTKSLDLLGFKCTGKYIKKIHTGNTVKNVPCYQYELKKQ")
"not soluble"

----------
Assay: soluble on expression in E. coli; label from the status in PepcDB or PDB records
property.label: soluble on expression in E. coli

>>> test_result("GPGSMGADIVEVDVWRTSDGALILMHDETLDRTTNGTGRVCDHTLAEVRALRLKDGLGNMTEFTVPTVEEVLLLAKDRAILNLDKADVYLDELYPLLVKTGMVEQTILKSEIPFDELCKRYSADLLNRVIFMPILNITDTTTYKNIDRAFAANHALYEVNFEKENADVLQYIRKLAKNSGAALWINTIWPTTCGGYSDDHALRDKDANWGYVVDRIGAGIIQTDRPAMLLAYLQERGCR")
"not soluble"
>>> test_result("MGSDKIHHHHHHMPECSKAWAVREEPELLTDRRHTDDGGEFVSQPRIIEPAIRTLIDTPLRVGESPTWDERTGDLWFVDILAPAIFCLSPSGKLQRFDMPAQIGCLGLCQSNLIVAALKTGVHLLNPQNGELELLCDPDEGRADSRLNDGKVGPDGHFWVGTRDEADVPTGNARLYRVSSSGHVERFIDGDMLTSNGLAWSPDETRMYHSDSSGLLLQVFDFDVQTGRLGPAKRLHDFQPDEGRPDGAATDSEGCYWSAGVQAGRLNRFTPDGELFEIYKMPFKGPTMPCFGGPELKTLYVTSLVTDTNGVATSGTLVAFDAPVAGAPIHKFPL")
"not soluble"
>>> test_result("MAHHHHHHMPSAPTCQHGSYHQCECYGHNTQLPNYRHDISNPRTLQGYYAPNGGCPCPATCGAEKHGLYCSDRGADASAMPKLTFRAADGPHTVHSASDVDGNGRDPATSIRTAFPNSRNYGGTVAQRGPTTLSTRAQLSASRKARAEAKREERAQDRKNFLRGVLRDEMLARMDAEGKRAALEADTGLMGTHHGEEYEANQRAAGSMRGGLDSTSRDPDTVLTLGEQYREIMDELEYVADQPVGSKYNIIRLHYLVEEEDRLNRLRLQERIRKTAEAMQSKK")
"not soluble"

Data provenance is the DeepSol protein solubility set.
